Biological target: human GnRH receptor (Homo sapiens)
Construct: expressed in transfected cells; host or cells: HEK 293 (hGnRH-R/293, from Dr. Stuart Sealfon)
Sequence (P30968 1-328): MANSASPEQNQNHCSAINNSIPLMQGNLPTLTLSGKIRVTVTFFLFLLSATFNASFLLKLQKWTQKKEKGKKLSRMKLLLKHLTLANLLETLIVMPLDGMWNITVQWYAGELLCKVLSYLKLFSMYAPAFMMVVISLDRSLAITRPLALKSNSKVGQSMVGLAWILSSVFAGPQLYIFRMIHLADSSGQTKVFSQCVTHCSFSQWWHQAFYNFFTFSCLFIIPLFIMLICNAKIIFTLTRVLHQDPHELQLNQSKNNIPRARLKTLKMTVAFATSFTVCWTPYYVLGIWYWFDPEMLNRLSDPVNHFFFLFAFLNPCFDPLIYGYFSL
Assay: Radioligand binding, 125I-GnRH-A displacement, membranes of HEK 293 cells with human GnRH receptor
Conditions: 1 uM; read-out: % Inhib. @ 1 uM hGnRH
Description: All compounds were diluted in 1% DMSO (final assay concentration) in binding assay buffer. […] Reactions were terminated by rapid filtration onto 96-well Packard GF/C filters soaked in 0.1% polyethyleneimine. Filters were washed three times with PBS buffer, dried and counted on a Packard Topcount by liquid scintillation counting. […] The reaction mixture was vortexed and incubated for 1 min at room temperature. […] Fractions were assessed for biological activity by radioligand binding. […]
Field: class. Source value: inhibition at 1 µM. Ranges: bin 1 = under 10%, bin 2 = from 10% up to 40%, bin 3 = 40% and over

Completed entries (count: 2):
compound="Cc1cc2c(cc1Cc1ccc(C(=O)NCCc3ccc([N+](=O)[O-])cc3)o1)C(C)(C)CCC2(C)C [drawing 1057]" class_label="bin 2"
compound="COc1ccc(CNC(=O)c2ccc(Cc3cc4c(cc3C)C(C)(C)CCC4(C)C)o2)c(OC)c1 [drawing 1224]" class_label="bin 3"

Into which category would you place Cc1cc2c(cc1Cc1ccc(C(=O)NCCN3CCCC3)o1)C(C)(C)CCC2(C)C [drawing 986] ?
bin 1

Query Cc1cc2c(cc1Cc1ccc(C(=O)Nc3ccc4[nH]c(-c5ccccn5)nc4c3)o1)C(C)(C)CCC2(C)C [drawing 1002] next
bin 2

Entry to check: Cc1cc2c(cc1Cc1ccc(C(=O)NCC3CN(Cc4ccccc4)CCO3)o1)C(C)(C)CCC2(C)C (stereo not shown) [drawing 1049]
bin 2

----------
Target: mouse GnRH receptor (Mus musculus)
Construct: expressed in transfected cells; host or cells: 293 cells
Sequence (Q01776 1-327): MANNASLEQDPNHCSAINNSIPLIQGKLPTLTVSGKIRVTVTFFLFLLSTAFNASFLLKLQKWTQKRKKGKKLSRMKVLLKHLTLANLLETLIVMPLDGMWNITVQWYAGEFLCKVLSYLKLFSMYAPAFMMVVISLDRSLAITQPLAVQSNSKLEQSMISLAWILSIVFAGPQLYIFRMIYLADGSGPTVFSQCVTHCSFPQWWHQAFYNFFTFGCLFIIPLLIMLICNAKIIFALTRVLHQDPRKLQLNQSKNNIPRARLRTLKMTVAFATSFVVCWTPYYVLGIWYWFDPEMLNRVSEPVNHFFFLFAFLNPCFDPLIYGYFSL
Experiment: Radioligand binding, 125I-GnRH-A, 293 cells expressing mouse GnRH receptors
Conditions: 10 uM; read-out: % Inhib. @ 10 uM mGnRH
quantity-kind: inhibition at 10 µM (%)
Output spec: scalar in %, unitless text.

The following compounds have reported results that may help.
compound="Cc1cc2c(cc1Cc1ccc(C(=O)N3CCCC3C(O)(c3ccccc3)c3ccccc3)o1)C(C)(C)CCC2(C)C (stereo not shown)" recorded_number=31
compound=Cc1cc2c(cc1Cc1ccc(C(=O)N(CCN3CCCC3)Cc3cccc(Oc4cccc(C(F)(F)F)c4)c3)o1)C(C)(C)CCC2(C)C recorded_number=99
compound=Cc1cc2c(cc1Cc1ccc(C(=O)N(CCC(c3ccccc3)c3ccccc3)Cc3ccc4c(c3)OCO4)o1)C(C)(C)CCC2(C)C recorded_number=25
compound=CCOC(CN(Cc1ccncc1)C(=O)c1ccc(Cc2cc3c(cc2C)C(C)(C)CCC3(C)C)o1)OCC recorded_number=31

Which inhibition at 10 µM value is on record for CC(=O)NC1CCN(C(=O)c2ccc(Cc3cc4c(cc3C)C(C)(C)CCC4(C)C)o2)C1 (stereo not shown) ?
63

Can you check Cc1cc2c(cc1Cc1ccc(C(=O)N(C)C3CCCC3)o1)C(C)(C)CCC2(C)C next?
100

Moving on to the next compound: Cc1cc2c(cc1Cc1ccc(C(=O)NC3(CO)CCCC3)o1)C(C)(C)CCC2(C)C [drawing 1464]
98

----------
The following compounds are shown together with reported IC50 values.
Biological target: rat GnRH receptor (Rattus norvegicus)
Sequence (P30969 1-327): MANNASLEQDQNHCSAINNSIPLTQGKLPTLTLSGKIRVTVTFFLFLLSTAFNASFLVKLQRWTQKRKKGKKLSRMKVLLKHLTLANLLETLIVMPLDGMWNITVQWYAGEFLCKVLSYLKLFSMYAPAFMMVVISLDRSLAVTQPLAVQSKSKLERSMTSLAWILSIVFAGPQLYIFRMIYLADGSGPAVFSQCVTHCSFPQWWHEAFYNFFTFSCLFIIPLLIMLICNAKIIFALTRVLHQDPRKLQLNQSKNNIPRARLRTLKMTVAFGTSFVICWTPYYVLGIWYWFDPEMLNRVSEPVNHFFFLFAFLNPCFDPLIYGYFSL
Assay: Radioligand binding, 125I-GnRH-A, rat pituitary membranes
Parameters: membranes were prepared from rat pituitary; from tissue; host or cells: rat pituitary
Settings: read-out: rGnRH IC50
Answer in µM, number only, no unit symbol.

Below are worked cases with known answers.
compound=COc1cc(C)c(Cc2ccc(C(=O)NCc3cnc(C)cn3)o2)cc1OC quantity_kind=IC50 recorded_number=0.77
compound=COC(=O)[C@H]1CC[C@H](CNC(=O)c2ccc(Cc3cc4c(cc3C)C(C)(C)CCC4(C)C)o2)CC1 quantity_kind=IC50 recorded_number=0.89
compound=COc1cc(CO)cc(OC)c1NC(=O)c1ccc(Cc2cc3c(cc2C)C(C)(C)CCC3(C)C)o1 quantity_kind=IC50 recorded_number=0.005
compound=COc1cc(OC)c(NC(=O)c2ccc(Cc3cc(C(C)(C)C)ccc3C)o2)c(OC)c1 quantity_kind=IC50 recorded_number=0.0028
compound=Cc1cc2c(cc1Cc1ccc(C(=O)NC[C@@H](O)c3ccccc3)o1)C(C)(C)CCC2(C)C quantity_kind=IC50 recorded_number=0.75
compound="Cc1cc2c(cc1Cc1ccc(C(=O)Nc3ccc(C(N)=O)cc3)o1)C(C)(C)CCC2(C)C [Compound 108]" quantity_kind=IC50 recorded_number=2.74
compound=CC(=O)c1cccc(NC(=O)c2ccc(Cc3cc4c(cc3C)C(C)(C)CCC4(C)C)o2)c1 quantity_kind=IC50 recorded_number=0.06
compound=COc1cccc(OC)c1NC(=O)c1ccc(Cc2cc3c(cc2C)C(C)(C)CCC3(C)C)o1 quantity_kind=IC50 recorded_number=0.005

What value of measured IC50 is listed for COc1cc(OC)c(NC(=O)c2ccc(Cc3c(C)cc(C)cc3C)o2)c(OC)c1 ?
0.13

Query Cc1cc2c(cc1Cc1ccc(C(=O)NCc3cccc(CNC(=O)C(F)(F)F)c3)o1)C(C)(C)CCC2(C)C next
0.39

----------
experiment: Metabolism rate, pmol/min/mg at 1 μM, rat male; format: in vitro ADME; conditions: 1 μM compound
Consider the following compounds and their measured Rat male pmol/min/mg 1 μM readings.
Write down the numeric answer in pmol/min/mg and omit the unit.

Below, 3 compounds whose answers are already recorded.
compound=COc1ccc(NC(=O)c2ccc(Cc3cc4c(cc3C)C(C)(C)CCC4(C)C)o2)c(OC)c1 quantity_kind="Rat male pmol/min/mg 1 μM" measurement_units=pmol/min/mg recorded_number=2549
compound=CCOc1cccc(OCC)c1NC(=O)c1ccc(Cc2cc3c(cc2C)C(C)(C)CCC3(C)C)o1 quantity_kind="Rat male pmol/min/mg 1 μM" measurement_units=pmol/min/mg recorded_number=5978
compound=COc1cc(OC)c(NC(=O)c2ccc(Cc3cc4c(cc3C)C(C)(C)CCC4(C)C)o2)c(OC)c1C#N quantity_kind="Rat male pmol/min/mg 1 μM" measurement_units=pmol/min/mg recorded_number=2930

Given Cc1cc2c(cc1Cc1ccc(C(=O)NCCOc3ccccc3)o1)C(C)(C)CCC2(C)C , state its recorded Rat male pmol/min/mg 1 μM.
2198

Also COc1cc(CO)cc(OC)c1NC(=O)c1ccc(Cc2cc3c(cc2C)C(C)(C)CCC3(C)C)o1 , if possible.
6642

----------
Catalogue of % Inhib. @ 1 uM hGnRH readings, one per entry.
molecular target: human GnRH receptor (Homo sapiens, UniProt P30968); construct: expressed in transfected cells; host or cells: HEK 293 (hGnRH-R/293, from Dr. Stuart Sealfon); assay: Radioligand binding, 125I-GnRH-A displacement, membranes of HEK 293 cells with human GnRH receptor; conditions: 1 uM
Numbers only here, please. The scale is %.

compound="Cc1cc2c(cc1Cc1ccc(C(=O)NC(CO)Cc3ccccc3)o1)C(C)(C)CCC2(C)C (stereo not shown) [drawing 1137]" recorded_number=17
compound="Cc1cc2c(cc1Cc1ccc(C(=O)NC(CO)Cc3ccccc3)o1)C(C)(C)CCC2(C)C (stereo not shown) [drawing 1117]" recorded_number=72
compound="Cc1cc2c(cc1Cc1ccc(C(=O)NC(c3ccccc3)C(O)c3ccccc3)o1)C(C)(C)CCC2(C)C (stereo not shown) [drawing 1072]" recorded_number=56

Could you now look at the following compound, please?
# input compound: Cc1cc2c(cc1Cc1ccc(C(=O)NC3CCCc4ccccc43)o1)C(C)(C)CCC2(C)C (stereo not shown) [drawing 1150] ; wanted: its % Inhib. @ 1 uM hGnRH
16
